- target.system: insulin receptor A (UniProt P06213-2 28-1370, limits assumed)
- Sequence (P06213 other isoform, or with tags, fused parts or gaps limits assumed): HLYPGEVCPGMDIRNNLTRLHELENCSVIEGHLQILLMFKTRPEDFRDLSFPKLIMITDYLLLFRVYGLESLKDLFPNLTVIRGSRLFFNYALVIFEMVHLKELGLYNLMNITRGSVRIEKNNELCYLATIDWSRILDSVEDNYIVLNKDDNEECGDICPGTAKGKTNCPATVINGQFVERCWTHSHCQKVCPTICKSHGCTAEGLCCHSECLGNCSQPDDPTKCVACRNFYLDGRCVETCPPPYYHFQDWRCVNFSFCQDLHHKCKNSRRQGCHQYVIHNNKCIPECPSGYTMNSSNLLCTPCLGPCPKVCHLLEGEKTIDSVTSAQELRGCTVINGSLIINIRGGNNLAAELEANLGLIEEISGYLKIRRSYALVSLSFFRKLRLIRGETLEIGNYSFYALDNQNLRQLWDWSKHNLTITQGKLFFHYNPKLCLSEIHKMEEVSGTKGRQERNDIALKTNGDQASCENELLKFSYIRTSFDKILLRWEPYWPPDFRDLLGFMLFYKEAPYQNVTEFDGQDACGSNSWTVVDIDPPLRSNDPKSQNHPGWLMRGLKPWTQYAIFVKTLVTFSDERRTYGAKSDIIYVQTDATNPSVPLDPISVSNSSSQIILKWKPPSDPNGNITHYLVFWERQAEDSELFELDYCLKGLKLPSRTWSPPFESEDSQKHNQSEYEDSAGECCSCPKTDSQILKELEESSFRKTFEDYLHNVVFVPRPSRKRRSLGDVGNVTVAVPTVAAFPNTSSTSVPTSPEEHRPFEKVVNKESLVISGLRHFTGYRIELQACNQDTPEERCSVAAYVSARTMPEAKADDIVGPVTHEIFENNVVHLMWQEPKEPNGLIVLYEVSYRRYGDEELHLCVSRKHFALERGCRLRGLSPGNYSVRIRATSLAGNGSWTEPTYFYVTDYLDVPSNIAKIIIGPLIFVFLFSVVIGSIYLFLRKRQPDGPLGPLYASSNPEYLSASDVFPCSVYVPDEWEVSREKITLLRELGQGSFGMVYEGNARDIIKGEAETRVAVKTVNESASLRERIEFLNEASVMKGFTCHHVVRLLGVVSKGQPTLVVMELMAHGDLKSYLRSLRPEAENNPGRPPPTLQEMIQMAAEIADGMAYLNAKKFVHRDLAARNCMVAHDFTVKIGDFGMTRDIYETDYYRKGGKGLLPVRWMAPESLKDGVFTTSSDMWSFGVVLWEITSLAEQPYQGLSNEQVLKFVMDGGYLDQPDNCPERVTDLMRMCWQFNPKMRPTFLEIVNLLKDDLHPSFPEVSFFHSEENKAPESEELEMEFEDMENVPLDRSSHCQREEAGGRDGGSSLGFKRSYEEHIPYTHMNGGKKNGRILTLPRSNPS
- protocol.text: insulin receptor binding assay as in Vienberg et al. 2011; relative to human insulin on insulin receptor A (100%)
This section presents binders with their documented Insulin receptor affinity [IC50 relative to HI (%)] values.
metric.name: Insulin receptor affinity [IC50 relative to HI (%)]

| binder | measurement |
| --- | --- |
| A14E, A21G, A22(GQEP)6, A46K^, A47P, B25H, B29R, desB30 human insulin/(227A, 234A, 235K hIgG4-Fc(228-447)) … (other, Cys229 (EU numbering) sulphur bound to an acetyl arm of the linker; A46K N(eps) acylated by the trivalent linker 4-[bis[2-[(2-acetyl)amino]ethyl]amino]-4-oxo-butanoyl, also called Ex 5.7) chain 1: GIVEQCCTSICSLEQLENYCGGQEPGQEPGQEPGQEPGQEPGQEPKP chain 2: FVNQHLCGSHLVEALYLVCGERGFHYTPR chain 3: ASCPAPEAKGGPSVFLFPPKPKDTLMISRTPEVTCVVVDVSQEDPEVQFNWYVDGVEVHNAKTKPREEQFNSTYRVVSVLTVLHQDWLNGKEYKCKVSNKGLPSSIEKTISKAKGQPREPQVYTLPPSQEEMTKNQVSLTCLVKGFYPSDIAVEWESNGQPENNYKTTPPVLDSDGSFFLYSRLTVDKSRWQEGNVFSCSVMHEALHNHYTQKSLSLSLGK | 2.43% |
| A14E, A21G, A22(GQAPGQAPGQEP)6-GQAP, A98K^, A99P, B29R, desB30 human insulin/(227A, 234A, 235K, 297E, 315Q, 384Q, des447 hIgG4-Fc(228-447)) … (other, Cys229 (EU numbering) sulphur bound to an acetyl arm of the linker; A98K N(eps) acylated by the trivalent linker 4-[bis[2-[(2-acetyl)amino]ethyl]amino]-4-oxo-butanoyl) chain 1: GIVEQCCTSICSLEQLENYCGGQAPGQAPGQEPGQAPGQAPGQEPGQAPGQAPGQEPGQAPGQAPGQEPGQAPGQAPGQEPGQAPGQAPGQEPGQAPKP chain 2: FVNQHLCGSHLVEALYLVCGERGFFYTPR chain 3: ASCPAPEAKGGPSVFLFPPKPKDTLMISRTPEVTCVVVDVSQEDPEVQFNWYVDGVEVHNAKTKPREEQFESTYRVVSVLTVLHQDWLQGKEYKCKVSNKGLPSSIEKTISKAKGQPREPQVYTLPPSQEEMTKNQVSLTCLVKGFYPSDIAVEWESQGQPENNYKTTPPVLDSDGSFFLYSRLTVDKSRWQEGNVFSCSVMHEALHNHYTQKSLSLSLG | 4% |
